# Species on record: Rattus norvegicus
# TEST_SUMMARY: Open TG-GATES - Regimen: Single
# Type: toxicity, organism-based, Sprague-Dawley
# Parameters: regimen Single, gender Male, age 6 weeks
# CONDITION_INFO: in vivo, po, 0 mg/kg, 3 h, tissue Blood, route gavage, dose level Control
MEASUREMENT_KIND: Fbg (mg/dL)
Give bare numbers, in mg/dL.

{"MOLECULE": "COc1ccc(Cc2nccc3cc(OC)c(OC)cc23)cc1OC", "UNITS_OF_MEASURE": "mg/dL", "Fbg": 332.6}
{"MOLECULE": "CCc1cc(C(N)=S)ccn1 [ETHIONAMIDE]", "UNITS_OF_MEASURE": "mg/dL", "Fbg": 213.4}
{"MOLECULE": "CN(C)CCC=C1c2ccccc2CCc2ccccc21", "UNITS_OF_MEASURE": "mg/dL", "Fbg": 235.6}
{"MOLECULE": "C[C@H](CS)C(=O)N1CCC[C@H]1C(=O)O", "UNITS_OF_MEASURE": "mg/dL", "Fbg": 204.8}
{"MOLECULE": "CSc1ccc2c(c1)N(CCC1CCCCN1C)c1ccccc1S2 (configuration not stated)", "UNITS_OF_MEASURE": "mg/dL", "Fbg": 206.6}

Consider the following items and state reported Fbg for each.
1. NC(=O)N/N=C/c1ccc([N+](=O)[O-])o1
2. NC(=O)N1c2ccccc2C=Cc2ccccc21 [CARBAMAZEPINE]
3. Clc1ccccc1CN1CCc2sccc2C1
4. O=C(O)c1cn(C2CC2)c2cc(N3CCNCC3)c(F)cc2c1=O
5. O=C(O)c1cc(/N=N/c2ccc(S(=O)(=O)Nc3ccccn3)cc2)ccc1O
6. Cn1c(=O)c2[nH]cnc2n(C)c1=O.O
7. CC(=O)Oc1ccccc1C(=O)O

(A)
[250, 213.8, 221.2, 202.2, 220.4, 289.8, 226.6]

----------
Give PT for every item shown.
# Species on record: Rattus norvegicus
# TEST_SUMMARY: Open TG-GATES - Regimen: Single
# Assay type: toxicity, organism-based, Sprague-Dawley
# Set-up: regimen Single, gender Male, age 6 weeks
# CONDITION_INFO: in vivo, po, 1000 mg/kg, 9 h, tissue Blood, route gavage, dose level High
Give bare numbers, in s.

// worked examples, PT included
{"COMPOUND": "O=C(O)c1cc(/N=N/c2ccc(S(=O)(=O)Nc3ccccn3)cc2)ccc1O [SULFASALAZINE]", "UNITS_OF_MEASURE": "s", "ASSAY_RESULT": 12.8}
{"COMPOUND": "C[C@H](CS)C(=O)N1CCC[C@H]1C(=O)O [CAPTOPRIL]", "UNITS_OF_MEASURE": "s", "ASSAY_RESULT": 12.4}

For the 3 compounds below, give their PT values.
1. Clc1ccccc1CN1CCc2sccc2C1 [TICLOPIDINE]
2. CCc1cc(C(N)=S)ccn1 [ETHIONAMIDE]
3. O=C(O)c1cn(C2CC2)c2cc(N3CCNCC3)c(F)cc2c1=O [CIPROFLOXACIN]

(A)
[12.4, 14.6, 11.4]

----------
# Species: Rattus norvegicus
# TEST_SUMMARY: Open TG-GATES - Regimen: Single
# Type: toxicity, organism-based, Sprague-Dawley
# Set-up: regimen Single, gender Male, age 6 weeks
# CONDITION_INFO: in vivo, po, 0 mg/kg, 6 h, tissue Blood, route gavage, dose level Control
I'd appreciate it if you could supply Bas values for the items below.
Answers are plain numbers, in %.

The examples below pair each entry with its known result.
{"MOLECULE": "NC(=O)N1c2ccccc2C=Cc2ccccc21 [CARBAMAZEPINE]", "Bas / %": 0}
{"MOLECULE": "COc1ccc2c(c1)c(CC(=O)O)c(C)n2C(=O)c1ccc(Cl)cc1", "Bas / %": 0}
{"MOLECULE": "CSc1ccc2c(c1)N(CCC1CCCCN1C)c1ccccc1S2 (stereo not drawn)", "Bas / %": 0}
{"MOLECULE": "Cn1c(=O)c2[nH]cnc2n(C)c1=O.O", "Bas / %": 0}
{"MOLECULE": "COc1ccc(Cc2nccc3cc(OC)c(OC)cc23)cc1OC", "Bas / %": 0}

Batch lookup, Bas per entry.
1. Clc1ccccc1CN1CCc2sccc2C1
2. NC(=O)N/N=C/c1ccc([N+](=O)[O-])o1

(A)
1: 0.2; 2: 0.2

For every item in the list below, what is its measured Bas?
1. CC(=O)Oc1ccccc1C(=O)O
2. O=C(O)c1cn(C2CC2)c2cc(N3CCNCC3)c(F)cc2c1=O
3. O=C(O)c1cc(/N=N/c2ccc(S(=O)(=O)Nc3ccccn3)cc2)ccc1O
4. CN(C)CCC=C1c2ccccc2CCc2ccccc21
5. C[C@H](CS)C(=O)N1CCC[C@H]1C(=O)O
6. CCc1cc(C(N)=S)ccn1 [ETHIONAMIDE]

(A)
1: 0; 2: 0; 3: 0; 4: 0; 5: 0; 6: 0

----------
# Species: Rattus norvegicus
# TEST_SUMMARY: Open TG-GATES - Regimen: Single
# Format: toxicity, organism-based, Sprague-Dawley
# Set-up: regimen Single, gender Male, age 6 weeks
# CONDITION_INFO: in vivo, po, 0 mg/kg, 3 h, tissue Plasma, route gavage, dose level Control
Assign Ca to each entry below.
Answers are plain numbers, in mg/dL.

# example entries with known answers
{"MOLECULE": "NC(=O)N1c2ccccc2C=Cc2ccccc21 [CARBAMAZEPINE]", "Ca [mg/dL]": 10.7}
{"MOLECULE": "O=C(O)c1cc(/N=N/c2ccc(S(=O)(=O)Nc3ccccn3)cc2)ccc1O", "Ca [mg/dL]": 10.6}
{"MOLECULE": "CC(=O)Oc1ccccc1C(=O)O", "Ca [mg/dL]": 10.7}
{"MOLECULE": "COc1ccc(Cc2nccc3cc(OC)c(OC)cc23)cc1OC", "Ca [mg/dL]": 11}

Moving on to the next molecule.
(Q) Give the measured Ca of CCc1cc(C(N)=S)ccn1 [ETHIONAMIDE] .
(A) 10.9

----------
# Species: Rattus norvegicus
# TEST_SUMMARY: Open TG-GATES - Regimen: Single
# Type: toxicity, organism-based, Sprague-Dawley
# Parameters: regimen Single, gender Male, age 6 weeks
# CONDITION_INFO: in vivo, po, 300 mg/kg, 6 h, tissue Plasma, route gavage, dose level Middle
MEASUREMENT_KIND: ALT (IU/L)
One number for each entry, in IU/L.

{"COMPOUND": "O=C(O)c1cn(C2CC2)c2cc(N3CCNCC3)c(F)cc2c1=O [CIPROFLOXACIN]", "MEASUREMENT_KIND": "ALT", "UNITS_OF_MEASURE": "IU/L", "ASSAY_RESULT": 35.2}
{"COMPOUND": "C[C@H](CS)C(=O)N1CCC[C@H]1C(=O)O [CAPTOPRIL]", "MEASUREMENT_KIND": "ALT", "UNITS_OF_MEASURE": "IU/L", "ASSAY_RESULT": 32}
{"COMPOUND": "Clc1ccccc1CN1CCc2sccc2C1 [TICLOPIDINE]", "MEASUREMENT_KIND": "ALT", "UNITS_OF_MEASURE": "IU/L", "ASSAY_RESULT": 34}
{"COMPOUND": "CCc1cc(C(N)=S)ccn1 [ETHIONAMIDE]", "MEASUREMENT_KIND": "ALT", "UNITS_OF_MEASURE": "IU/L", "ASSAY_RESULT": 32.8}

--- query ---
(Q) I am curious: what ALT value has been reported for O=C(O)c1cc(/N=N/c2ccc(S(=O)(=O)Nc3ccccn3)cc2)ccc1O [SULFASALAZINE] ?
(A) 33.8

----------
# Species on record: Rattus norvegicus
# TEST_SUMMARY: Open TG-GATES - Regimen: Single
# Format: toxicity, organism-based, Sprague-Dawley
# Set-up: regimen Single, gender Male, age 6 weeks
# CONDITION_INFO: in vivo, po, 300 mg/kg, 6 h, tissue Plasma, route gavage, dose level Middle
Assignment: determine reported CRE for the given molecules.
Give bare numbers, in mg/dL.

Take a look at these entries with their results.
{"MOLECULE": "O=C(O)c1cn(C2CC2)c2cc(N3CCNCC3)c(F)cc2c1=O [CIPROFLOXACIN]", "UNITS_OF_MEASURE": "mg/dL", "CRE": 0.5}
{"MOLECULE": "Clc1ccccc1CN1CCc2sccc2C1 [TICLOPIDINE]", "UNITS_OF_MEASURE": "mg/dL", "CRE": 0.4}
{"MOLECULE": "C[C@H](CS)C(=O)N1CCC[C@H]1C(=O)O [CAPTOPRIL]", "UNITS_OF_MEASURE": "mg/dL", "CRE": 0.6}

Record CRE for all entries; do not skip any.
1. O=C(O)c1cc(/N=N/c2ccc(S(=O)(=O)Nc3ccccn3)cc2)ccc1O [SULFASALAZINE]
2. CCc1cc(C(N)=S)ccn1 [ETHIONAMIDE]

(A)
1: 0.4; 2: 0.5

Source listed as ChEMBL document CHEMBL3885861.
